- assay: Serum concentrations of ICI 182780 by radioimmunoassay (pharmacokinetics of monthly i.m. depot)
- Format: in vivo, human
- experimental-conditions: human, serum, intramuscular, 250 mg, patient 14 (partial response), 250 mg; read-out: Cmax on entry
endpoint-name: Cmax (ng/mL)

| molecule | observed-measurement |
| --- | --- |
| C[C@]12CC[C@@H]3c4ccc(O)cc4C[C@@H](CCCCCCCCC[S+]([O-])CCCC(F)(F)C(F)(F)F)[C@H]3[C@@H]1CC[C@@H]2O (stereo partly shown) | 9.1 |

---

- assay: Serum concentrations of ICI 182780 by radioimmunoassay (pharmacokinetics of monthly i.m. depot)
- Format: in vivo, human
- experimental-conditions: human, serum, intramuscular, 250 mg, patient 17 (no change), 250 mg; read-out: Cmax at month 6
endpoint-name: Cmax (ng/mL)

| compound | endpoint-name | display-unit | observed-measurement |
| --- | --- | --- | --- |
| C[C@]12CC[C@@H]3c4ccc(O)cc4C[C@@H](CCCCCCCCC[S+]([O-])CCCC(F)(F)C(F)(F)F)[C@H]3[C@@H]1CC[C@@H]2O (stereo partly shown) | Cmax | ng/mL | 14.9 |

Sourced from paper PMC2074590
